- Target Desc: COX-2 (Homo sapiens, UniProt P35354)
- Method Summary: Human whole blood assay, COX-2 (LPS-induced PGE2 production)
- Assay type: cell-based
- Measurement Context: human whole blood, LPS-induced PGE2 production, 24 hours at 37° C.; read-out: Cox-2 Whole Blood (IC50)
- Text: As well, platelets in whole blood contain a large amount of the COX-1 enzyme. Immediately following blood clotting, platelets are activated through a thrombin-mediated mechanism. This reaction results in the production of thromboxane B2 (TxB2) via activation of COX-1. […] Therefore, the degree of selectivity by the test compound can be determined by measuring the levels of PGE2 after LPS induction (COX-2) and TxB2 following blood clotting (COX-1) in the same assay. […]
Assay Readout: pIC50
To interpret pIC50, take it as minus log10 of a concentration measured in moles per litre.

CS(=O)(=O)c1ccc(-c2cc(Cl)cnc2-c2cccnc2)cc1    6.00
CS(=O)(=O)c1ccc(-c2cc(C(F)(F)F)cnc2-c2ccc(F)cc2)cc1    6.52
Cc1cnc(-c2ccc(Cl)cc2)c(-c2ccc(S(C)(=O)=O)cc2)c1    6.15
Cc1cnc(-c2ccccc2)c(-c2ccc(S(C)(=O)=O)cc2)c1    6.30
CS(=O)(=O)c1ccc(-c2cccnc2-c2ccc(F)cc2)cc1 [Ab, reference compound]    5.31

Form: molecule = CS(=O)(=O)c1ccc(-c2cc(C#N)cnc2-c2ccc(Cl)cc2)cc1 ; pIC50 = 5.66

Form: molecule = CS(=O)(=O)c1ccc(-c2cc(Br)cnc2-c2cccnc2)cc1 ; pIC50 = 5.92

Form: molecule = CS(=O)(=O)c1ccc(-c2cc(C(F)(F)F)cnc2-c2ccccc2)cc1 ; pIC50 = 6.52

Form: molecule = CS(=O)(=O)c1ccc(-c2cc(C(F)(F)F)cnc2-c2ccc(Cl)cc2)cc1 ; pIC50 = 6.05

====

- Target Desc: COX-2 (Homo sapiens)
- Sequence (P35354 18-604): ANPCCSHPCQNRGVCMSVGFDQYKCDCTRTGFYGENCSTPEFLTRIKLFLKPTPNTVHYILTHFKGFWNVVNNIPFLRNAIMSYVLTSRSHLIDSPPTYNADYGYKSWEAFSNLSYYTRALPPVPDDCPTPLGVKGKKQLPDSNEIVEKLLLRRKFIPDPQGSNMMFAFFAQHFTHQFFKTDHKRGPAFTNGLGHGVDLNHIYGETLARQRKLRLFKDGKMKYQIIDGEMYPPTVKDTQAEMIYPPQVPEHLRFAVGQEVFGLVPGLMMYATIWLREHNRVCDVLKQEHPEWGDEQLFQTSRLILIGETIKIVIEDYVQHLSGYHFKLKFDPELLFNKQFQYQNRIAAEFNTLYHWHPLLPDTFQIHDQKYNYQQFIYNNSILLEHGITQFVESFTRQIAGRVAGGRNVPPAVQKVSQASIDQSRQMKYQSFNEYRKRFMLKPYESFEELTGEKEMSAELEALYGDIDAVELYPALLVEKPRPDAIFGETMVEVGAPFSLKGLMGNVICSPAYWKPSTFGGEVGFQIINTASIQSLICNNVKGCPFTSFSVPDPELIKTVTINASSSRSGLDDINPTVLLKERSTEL
- Method Summary: Human whole blood assay, COX-2 (LPS-induced PGE2 production)
- Format: cell-based
- Measurement Context: Cox-1 U937 IC50 over Cox-2 whole blood IC50
Property: Selectivity Ratio; scope: individual molecules
Returns: the value as a bare number; no unit string appended.

In the examples that follow, each entry is paired with its recorded Selectivity Ratio.
CS(=O)(=O)c1ccc(-c2cc(C(F)(F)F)cnc2-c2ccc(F)cc2)cc1    3.3
Cc1cnc(-c2ccccc2)c(-c2ccc(S(C)(=O)=O)cc2)c1    6
CS(=O)(=O)c1ccc(-c2cc(Cl)cnc2-c2cccnc2)cc1    16
CS(=O)(=O)c1ccc(-c2cc(C(F)(F)F)cnc2-c2ccc(Cl)cc2)cc1    2
Cc1cnc(-c2ccc(Cl)cc2)c(-c2ccc(S(C)(=O)=O)cc2)c1    2

Form: molecule = CS(=O)(=O)c1ccc(-c2cc(C(F)(F)F)cnc2-c2ccccc2)cc1 ; Selectivity Ratio = 4.4

====

- Target Desc: COX-1 (Homo sapiens)
- Construct: Assay of COX-1 Activity from U937 Cell Microsomes; endogenous in cells
- Method Summary: Cox-1 U937 (COX-1 activity from U937 cell microsomes)
- Measurement Context: U937, PGE2 synthesis in presence of AA
Property: IC50; scope: individual compounds
Express your answer in nM, writing the number without its unit.

Form: compound = CS(=O)(=O)c1ccc(-c2cc(C(F)(F)F)cnc2-c2ccc(Cl)cc2)cc1 [Example 3] ; IC50 = 1800

Form: compound = CS(=O)(=O)c1ccc(-c2cc(C(F)(F)F)cnc2-c2ccc(F)cc2)cc1 [Example 4] ; IC50 = 1000

Form: compound = CS(=O)(=O)c1ccc(-c2cc(Cl)cnc2-c2ccc(C3CC3)nc2)cc1 [Example 73] ; IC50 = 7000

====

Property: pIC50; scope: individual compounds
- Target Desc: COX-1 (Homo sapiens, UniProt P23219)
- Construct: Assay of COX-1 Activity from U937 Cell Microsomes; endogenous in cells
- Sequence (P23219 24-599): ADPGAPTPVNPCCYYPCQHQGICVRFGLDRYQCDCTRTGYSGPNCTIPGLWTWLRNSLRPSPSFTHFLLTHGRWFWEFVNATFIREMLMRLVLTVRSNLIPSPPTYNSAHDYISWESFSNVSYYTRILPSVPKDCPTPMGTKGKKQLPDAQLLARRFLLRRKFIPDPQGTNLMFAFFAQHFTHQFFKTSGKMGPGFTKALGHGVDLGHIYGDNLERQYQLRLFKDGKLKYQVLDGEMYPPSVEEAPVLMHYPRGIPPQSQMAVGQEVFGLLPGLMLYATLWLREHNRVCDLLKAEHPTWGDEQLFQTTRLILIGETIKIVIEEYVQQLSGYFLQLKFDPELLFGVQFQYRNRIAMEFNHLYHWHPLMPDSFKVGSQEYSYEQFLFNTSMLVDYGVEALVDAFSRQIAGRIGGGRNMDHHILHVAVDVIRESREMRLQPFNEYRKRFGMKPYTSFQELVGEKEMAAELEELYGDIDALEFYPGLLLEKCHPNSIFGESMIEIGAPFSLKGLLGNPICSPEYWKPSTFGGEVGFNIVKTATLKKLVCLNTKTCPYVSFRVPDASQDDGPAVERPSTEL
- Method Summary: Cox-1 U937 (COX-1 activity from U937 cell microsomes)
- Measurement Context: U937, PGE2 synthesis in presence of AA
To interpret pIC50, take it as minus log10 of a concentration measured in moles per litre.

The reported COX-1 (Homo sapiens, UniProt P23219) pIC50 of CS(=O)(=O)c1ccc(-c2cc(Cl)cnc2-c2cccnc2)cc1 [Example 21] is 4.80

The reported COX-1 (Homo sapiens, UniProt P23219) pIC50 of Cc1cnc(-c2ccc(Cl)cc2)c(-c2ccc(S(C)(=O)=O)cc2)c1 [Example 14] is 5.85

The reported COX-1 (Homo sapiens, UniProt P23219) pIC50 of CS(=O)(=O)c1ccc(-c2cc(C(F)(F)F)cnc2-c2cccnc2)cc1 [Example 7] is 5.30

The reported COX-1 (Homo sapiens, UniProt P23219) pIC50 of CS(=O)(=O)c1ccc(-c2cccnc2-c2ccc(F)cc2)cc1 [Ab, reference compound] is 5.66

====

Property: IC50; scope: individual compounds
- Target Desc: COX-1 (Homo sapiens, UniProt P23219)
- Construct: Assay of COX-1 Activity from U937 Cell Microsomes; endogenous in cells
- Method Summary: Cox-1 U937 (COX-1 activity from U937 cell microsomes)
- Measurement Context: U937, PGE2 synthesis in presence of AA

The reported COX-1 (Homo sapiens, UniProt P23219) IC50 of Cc1ccc(-c2ncc(Cl)cc2-c2ccc(S(C)(=O)=O)cc2)cn1 is > 10 µM

The reported COX-1 (Homo sapiens, UniProt P23219) IC50 of CCc1ccc(-c2ncc(Cl)cc2-c2ccc(S(C)(=O)=O)cc2)cn1 is > 10 µM

The reported COX-1 (Homo sapiens, UniProt P23219) IC50 of CS(=O)(=O)c1ccc(-c2cc(C#N)cnc2-c2ccc(Cl)cc2)cc1 is > 10 µM
